Method: Cytotoxicity against human CEmx174 cells expressing GFP after 5 days by resazurin assay
Assay type: cell-based
Measured Property: CC50 at 120 h

O=S(=O)(Cc1nc(N2CCOCC2)c2sccc2n1)c1cccc(Cl)c1
> 50 µM
O=S(=O)(Cc1nc(-c2ccncc2)c2sccc2n1)c1cccc(Cl)c1
> 50 µM
COc1ccc(Nc2nc(CS(=O)(=O)c3cccc(Cl)c3)nc3ccsc23)cc1
60 µM
O=S(=O)(Cc1nc(-c2ccoc2)c2sccc2n1)c1cccc(Cl)c1
> 50 µM
COc1ccc(-c2nc(CS(=O)(=O)c3cccc(Cl)c3)nc3ccsc23)cn1
> 10 µM
COc1ccc(-c2nc(S(=O)(=O)c3cccc(Cl)c3)nc3ccsc23)cn1
> 50 µM
COc1ccc(-c2nc(CSc3cccc(Cl)c3Cl)nc3ccsc23)cn1
> 50 µM
c1ccc(-c2cc(CNc3nncc(-c4cccc5ccccc45)n3)n[nH]2)cc1
> 10 µM

Exam item: Would you mind telling me what CC50 at 120 h value was observed for COc1ccc(-c2nc(C[S+]([O-])c3cccc(Cl)c3)nc3ccsc23)cn1 (stereo not given) ?
Marked response: > 50 µM

Exam item: Would you mind telling me what CC50 at 120 h value was observed for "COc1ccc(-c2nc(CSc3cccc(C(F)(F)F)c3)nc3ccsc23)cn1" ?
Marked response: > 50 µM

----------
Method: Cytotoxicity against human CEmx174 cells expressing GFP after 5 days by resazurin assay
Type: cell-based
Measured Property: CC50 at 120 h

Cc1ccnc2c1NC(=O)c1cccnc1N2C1CC1
> 10 µM
COc1ccc(-c2nc(CSc3cccc(Cl)c3)nc3ccsc23)cn1
> 10 µM
O=S(=O)(Cc1nc(-c2ccc(Cl)nc2)c2sccc2n1)c1cccc(Cl)c1
70 µM

Exam item: Would you mind telling me what CC50 at 120 h value was observed for COc1ccc(-c2nc(CC(O)c3cccc(Cl)c3)nc3ccsc23)cn1 (centres undefined) ?
Marked response: 31 µM

Exam item: Would you mind telling me what CC50 at 120 h value was observed for "COc1ccc(-c2nc(CSc3cc(C)cc(C)c3)nc3ccsc23)cn1" ?
Marked response: > 50 µM

Exam item: Would you mind telling me what CC50 at 120 h value was observed for "COc1ccc(-c2nc(CNc3cccc(Cl)c3)nc3ccsc23)cn1" ?
Marked response: > 50 µM

----------
Method: Cytotoxicity against human CEmx174 cells expressing GFP after 5 days by resazurin assay
Type: cell-based
Measured Property: CC50 at 120 h

Some solved cases for reference:
COc1ccc(-c2nc(C(C)(C)S(=O)(=O)c3cccc(Cl)c3)nc3ccsc23)cn1
> 50 µM
COc1ccc(-c2nc(C(C)S(=O)(=O)c3cccc(Cl)c3)nc3ccsc23)cn1 (stereo not given)
> 50 µM
COc1ccc(-c2nc(C(F)(F)S(=O)(=O)c3cccc(Cl)c3)nc3ccsc23)cn1
> 50 µM
COc1ccc(-c2nc(CSCc3cccc(Cl)c3)nc3ccsc23)cn1
> 50 µM

Exam item: Would you mind telling me what CC50 at 120 h value was observed for "COc1ccc(-c2nc(/C=C\c3cccc(Cl)c3)nc3ccsc23)cn1" ?
Marked response: 53 µM

----------
Quick list: CC50 at 120 h per entry.
Method: Cytotoxicity against human CEmx174 cells expressing GFP after 5 days by resazurin assay
Assay type: cell-based

Some solved cases for reference:
O=c1ccc(-c2nc(CS(=O)(=O)c3cccc(Cl)c3)nc3ccsc23)c[nH]1
> 50 µM
COc1ccc(-c2nc(CC(=O)c3cccc(Cl)c3)nc3ccsc23)cn1
30 µM
COc1ccc(-c2nc(C3(S(=O)(=O)c4cccc(Cl)c4)CC3)nc3ccsc23)cn1
> 50 µM
COc1ccc(-c2nc(CSc3ccc(F)cc3F)nc3ccsc23)cn1
> 50 µM

Exam item: Would you mind telling me what CC50 at 120 h value was observed for CCC1=C(C(=O)OCC2CCCCC2)C(c2cccc(O)c2)NC(=O)N1 (stereo not given) ?
Marked response: > 10 µM

Exam item: Would you mind telling me what CC50 at 120 h value was observed for "COc1ccc(-c2nc(CS(=O)(=O)c3cccc(Cl)c3)nc3ccsc23)cc1" ?
Marked response: 69 µM
